# Test system: NCI-H23
# MEASUREMENT PROTOCOL: relative viability (nuclei count vs DMSO), 5 days (fraction); higher = more cells survive
# CONDITION PARAMETERS: first compound 8 µM
REPORTED METRIC: relative viability
Number only, please.

Field: example entries. Status: answers known.
1. O=c1cc(-c2cccc3c2Sc2ccccc2S3)oc(N2CCOCC2)c1 + CCNC(=O)c1noc(-c2cc(C(C)C)c(O)cc2O)c1-c1ccc(CN2CCOCC2)cc1 [Luminespib] (partner 0.01 µM) | 0.209
2. O=c1cc(-c2cccc3c2Sc2ccccc2S3)oc(N2CCOCC2)c1 + NC(=O)Nc1cc(-c2cccc(F)c2)sc1C(=O)N[C@H]1CCCNC1 [AZD7762] (partner 0.2 µM) | 0.229
3. O=c1cc(-c2cccc3c2Sc2ccccc2S3)oc(N2CCOCC2)c1 + C[C@]1(O)C[C@@H](c2nc(-c3ccc4ccc(-c5ccccc5)nc4c3)c3c(N)nccn32)C1 [Linsitinib] (partner 1 µM) | 0.574

Turning to the following compound.
IN: Request - read-out relative viability | tested on NCI-H23 | compound O=c1cc(-c2cccc3c2Sc2ccccc2S3)oc(N2CCOCC2)c1 + Nc1ncn([C@H]2C[C@H](O)[C@@H](CO)O2)c(=O)n1 [Decitabine] (partner 2 µM)
OUT: 0.293

----------
# Test system: NCI-H1651
# MEASUREMENT PROTOCOL: relative viability (nuclei count vs DMSO), 5 days (fraction); higher = more cells survive
# CONDITION PARAMETERS: first compound 0.2 µM
REPORTED METRIC: relative viability
Number, no unit, nothing else.

Example results:
1) COCC1(CO)C(=O)C2CCN1CC2 (configuration not stated) [PRIMA-1MET] + Cc1nc(Nc2ncc(C(=O)Nc3c(C)cccc3Cl)s2)cc(N2CCN(CCO)CC2)n1 [Dasatinib] (partner 0.075 µM) | 0.455
2) COCC1(CO)C(=O)C2CCN1CC2 (configuration not stated) [PRIMA-1MET] + O=C(CCCCCCC(=O)Nc1ccccc1)NO [Vorinostat] (partner 1 µM) | 0.563
3) COCC1(CO)C(=O)C2CCN1CC2 (configuration not stated) [PRIMA-1MET] + CS(=O)(=O)N1CCN(Cc2cc3nc(-c4cccc5[nH]ncc45)nc(N4CCOCC4)c3s2)CC1 [Pictilisib] (partner 1 µM) | 0.662
4) COCC1(CO)C(=O)C2CCN1CC2 (configuration not stated) [PRIMA-1MET] + Cc1cc(Nc2cc(N3CCN(C)CC3)nc(Sc3ccc(NC(=O)C4CC4)cc3)n2)n[nH]1 [Tozasertib] (partner 0.1 µM) | 0.848
5) COCC1(CO)C(=O)C2CCN1CC2 (configuration not stated) [PRIMA-1MET] + O=C(c1cc(Cc2n[nH]c(=O)c3ccccc23)ccc1F)N1CCN(C(=O)C2CC2)CC1 [Olaparib] (partner 8 µM) | 0.226
6) COCC1(CO)C(=O)C2CCN1CC2 (configuration not stated) [PRIMA-1MET] + CS(=O)(=O)CCNCc1ccc(-c2ccc3ncnc(Nc4ccc(OCc5cccc(F)c5)c(Cl)c4)c3c2)o1 [Lapatinib] (partner 2 µM) | 0.917

IN: May I ask what relative viability has been recorded for COCC1(CO)C(=O)C2CCN1CC2 (configuration not stated) [PRIMA-1MET] + CC(C)C[C@H](NC(=O)[C@H](Cc1ccccc1)NC(=O)c1cnccn1)B(O)O [Bortezomib] (partner 0.002 µM) ?
OUT: 0.929

The origin of these recorded values is the supplement of paper PMC10307832.
